assay: Local (subcutaneous) pharmacokinetic study by dermal microdialysis after dermal administration of Huoxuezhitong rubber patch; type: in vivo; settings: Sprague-Dawley, rat, subcutaneous (dermal) microdialysate, topical; subcutaneous; male SD rats, transdermal Huoxuezhitong rubber patch; mean ± SD, n = 6; read-out: MRT0-∞ (converted)

# compound, MRT inf, h
rows = [
    ("COc1ccc(C(C)=O)c(O)c1 [paeonol]", 9.5),
    ("C=CCc1ccc(O)c(OC)c1 [eugenol]", 7.77),
    ("O=C(/C=C/C=C/c1ccc2c(c1)OCO2)N1CCCCC1 [piperine]", 11.5),
]

====

assay: Local (subcutaneous) pharmacokinetic study by dermal microdialysis after dermal administration of Huoxuezhitong rubber patch; assay type: in vivo; settings: Sprague-Dawley, rat, subcutaneous (dermal) microdialysate, topical; maximum subcutaneous concentration; male SD rats, transdermal Huoxuezhitong rubber patch (3.46 cm2), removed after 720 min; corrected by RR; mean ± SD, n = 6
quantity-name: Cmax (ng/mL)

# compound, readout-value
rows = [
    ("C=CCc1ccc(O)c(OC)c1 [eugenol]", 18.9),
    ("O=C(/C=C/C=C/c1ccc2c(c1)OCO2)N1CCCCC1 [piperine]", 1.8),
    ("COc1ccc(C(C)=O)c(O)c1 [paeonol]", 12.6),
]

====

assay: Local (subcutaneous) pharmacokinetic study by dermal microdialysis after dermal administration of Huoxuezhitong rubber patch; assay type: in vivo; conditions: Sprague-Dawley, rat, subcutaneous (dermal) microdialysate, topical; subcutaneous concentration-time curve; male SD rats, transdermal Huoxuezhitong rubber patch; mean ± SD, n = 6; read-out: AUC0-720 (converted)
Items are presented alongside their recorded AUC(0-t).

# item-smiles, AUC(0-t) [ng·h/mL]
data = [
    ("COc1ccc(C(C)=O)c(O)c1", 83.7),
    ("O=C(/C=C/C=C/c1ccc2c(c1)OCO2)N1CCCCC1", 14.7),
    ("C=CCc1ccc(O)c(OC)c1", 119),
]

====

Below is a list of entries, each paired with its recorded half-life value.
assay: Local (subcutaneous) pharmacokinetic study by dermal microdialysis after dermal administration of Huoxuezhitong rubber patch; format: in vivo; settings: Sprague-Dawley, rat, subcutaneous (dermal) microdialysate, topical; terminal elimination half-life, subcutaneous; male SD rats, transdermal Huoxuezhitong rubber patch; mean ± SD, n = 6
quantity-name: half-life

# item-smiles, readout-value
records = [
    ("C=CCc1ccc(O)c(OC)c1", "228 min"),
    ("O=C(/C=C/C=C/c1ccc2c(c1)OCO2)N1CCCCC1", "337 min"),
    ("COc1ccc(C(C)=O)c(O)c1", "337 min"),
]

====

assay: Local (subcutaneous) pharmacokinetic study by dermal microdialysis after dermal administration of Huoxuezhitong rubber patch; assay type: in vivo; conditions: Sprague-Dawley, rat, subcutaneous (dermal) microdialysate, topical; subcutaneous tissue; male SD rats, transdermal Huoxuezhitong rubber patch; mean ± SD, n = 6

# item-smiles, Tmax
measured = [
    ("C=CCc1ccc(O)c(OC)c1", "4 h"),
    ("COc1ccc(C(C)=O)c(O)c1", "3.11 h"),
    ("O=C(/C=C/C=C/c1ccc2c(c1)OCO2)N1CCCCC1", "8.13 h"),
]

====

Each entry below carries its reported MRT last.
test: Local (subcutaneous) pharmacokinetic study by dermal microdialysis after dermal administration of Huoxuezhitong rubber patch; format: in vivo; conditions: Sprague-Dawley, rat, subcutaneous (dermal) microdialysate, topical; subcutaneous; male SD rats, transdermal Huoxuezhitong rubber patch; mean ± SD, n = 6; read-out: MRT0-720 (converted)

# compound, MRT last, h
measured = [
    ("C=CCc1ccc(O)c(OC)c1 [eugenol]", 6.2),
    ("COc1ccc(C(C)=O)c(O)c1 [paeonol]", 6.06),
    ("O=C(/C=C/C=C/c1ccc2c(c1)OCO2)N1CCCCC1 [piperine]", 9.17),
]
